Quick reference for pIC50 among some molecules
- TARGET_DESC: BACE1 (Homo sapiens, UniProt P56817)
- Sequence (P56817 46-501, species assumed): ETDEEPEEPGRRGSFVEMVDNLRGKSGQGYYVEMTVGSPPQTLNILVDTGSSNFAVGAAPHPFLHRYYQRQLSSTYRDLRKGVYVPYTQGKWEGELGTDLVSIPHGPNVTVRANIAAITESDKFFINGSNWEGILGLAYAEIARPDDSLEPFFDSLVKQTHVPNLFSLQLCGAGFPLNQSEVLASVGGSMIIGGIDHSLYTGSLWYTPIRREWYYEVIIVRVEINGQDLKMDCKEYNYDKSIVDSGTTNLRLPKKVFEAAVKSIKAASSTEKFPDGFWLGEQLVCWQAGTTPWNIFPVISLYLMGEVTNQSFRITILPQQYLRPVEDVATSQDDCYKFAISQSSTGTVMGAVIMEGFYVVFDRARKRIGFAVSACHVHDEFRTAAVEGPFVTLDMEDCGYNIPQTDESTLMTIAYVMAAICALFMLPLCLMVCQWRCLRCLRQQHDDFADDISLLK
- ASSAY_DETAILS: In Vitro Enzymatic BACE FRET (Fluorescence Resonance Energy Transfer) Assay
- Format: biochemical
- TEST_SETTINGS: in vitro BACE FRET enzyme assay, IC50 class symbols; read-out: BACE1 FRET assay
pIC50: −log10 of the molar value.
RECORDED_METRIC: pIC50

{"CHEMICAL_STRUCTURE": "CC(C)(C)COc1cnc2c(c1)[C@]1(COC(N)=N1)c1cc(Br)ccc1O2", "RECORDED_METRIC": "pIC50", "REPORTED_RESULT": "6.00 to 7.00"}
{"CHEMICAL_STRUCTURE": "NC1=N[C@@]2(CO1)c1cc(-c3cc(Cl)ccc3F)ccc1Oc1cnc(-c3cccnc3)cc12", "RECORDED_METRIC": "pIC50", "REPORTED_RESULT": "> 7.00"}
{"CHEMICAL_STRUCTURE": "Cn1cc(-c2cc3c(cn2)Oc2ccc(-c4cccnc4F)cc2[C@@]32COC(N)=N2)cn1", "RECORDED_METRIC": "pIC50", "REPORTED_RESULT": "> 7.00"}
{"CHEMICAL_STRUCTURE": "CC(C)(C)/C=C/c1cc2c(cn1)Oc1ccc(-c3cccnc3)cc1[C@@]21COC(N)=N1", "RECORDED_METRIC": "pIC50", "REPORTED_RESULT": "> 7.00"}
{"CHEMICAL_STRUCTURE": "CC(C)(C#N)COc1cnc2c(c1)[C@]1(COC(N)=N1)c1cc(-c3cc(F)ccc3F)ccc1O2", "RECORDED_METRIC": "pIC50", "REPORTED_RESULT": "> 7.00"}
{"CHEMICAL_STRUCTURE": "NC1=N[C@@]2(CO1)c1cc(-c3cccnc3)ccc1Oc1c(F)cc(OCC3CCOCC3)cc12", "RECORDED_METRIC": "pIC50", "REPORTED_RESULT": "> 7.00"}
{"CHEMICAL_STRUCTURE": "COCC[C@@H]1CN(c2ccc3c(c2)[C@]2(COC(N)=N2)c2cc(-c4cccnc4)ccc2O3)CCO1", "RECORDED_METRIC": "pIC50", "REPORTED_RESULT": "6.00 to 7.00"}
{"CHEMICAL_STRUCTURE": "CC(C)(F)COc1cnc2c(c1)[C@]1(COC(N)=N1)c1cc(-c3cccc(C#N)c3)ccc1O2", "RECORDED_METRIC": "pIC50", "REPORTED_RESULT": "> 7.00"}
{"CHEMICAL_STRUCTURE": "CC(C)(C)COc1cnc2c(c1)[C@]1(COC(N)=N1)c1cc(-c3cncc(F)c3)ccc1O2", "RECORDED_METRIC": "pIC50", "REPORTED_RESULT": "> 7.00"}
{"CHEMICAL_STRUCTURE": "CC1(COc2cnc3c(c2)[C@]2(COC(N)=N2)c2cc(-c4cc(F)ccc4F)ccc2O3)COC1", "RECORDED_METRIC": "pIC50", "REPORTED_RESULT": "> 7.00"}
{"CHEMICAL_STRUCTURE": "COc1ccc2c(c1)[C@@]1(COC(N)=N1)c1cc(C3=CCOCC3)cc(F)c1O2", "RECORDED_METRIC": "pIC50", "REPORTED_RESULT": "6.00 to 7.00"}
{"CHEMICAL_STRUCTURE": "CC(C)(C)C#Cc1cnc2c(c1)[C@]1(COC(N)=N1)c1cc(-c3cccc(C#N)c3)ccc1O2", "RECORDED_METRIC": "pIC50", "REPORTED_RESULT": "> 7.00"}
{"CHEMICAL_STRUCTURE": "Cn1cc(-c2cnc3c(c2)[C@]2(COC(N)=N2)c2cc(-c4cccnc4F)ccc2O3)cn1", "RECORDED_METRIC": "pIC50", "REPORTED_RESULT": "> 7.00"}
{"CHEMICAL_STRUCTURE": "CC(C)(C#N)COc1cnc2c(c1)[C@]1(COC(N)=N1)c1cc(-c3cccnc3)ccc1O2", "RECORDED_METRIC": "pIC50", "REPORTED_RESULT": "> 7.00"}
{"CHEMICAL_STRUCTURE": "CC(C)(F)COc1cc2c(cc1F)Oc1ccc(-c3cccnc3)cc1[C@@]21COC(N)=N1", "RECORDED_METRIC": "pIC50", "REPORTED_RESULT": "> 7.00"}
{"CHEMICAL_STRUCTURE": "NC1=N[C@@]2(CO1)c1cc(-c3cccc(Cl)c3)ccc1Oc1ncc(C3=CCOCC3)cc12", "RECORDED_METRIC": "pIC50", "REPORTED_RESULT": "> 7.00"}
{"CHEMICAL_STRUCTURE": "COC(C)(C)COc1cnc2c(c1)[C@@]1(COC(N)=N1)c1cc(-c3ccccc3)ccc1O2", "RECORDED_METRIC": "pIC50", "REPORTED_RESULT": "6.00 to 7.00"}
{"CHEMICAL_STRUCTURE": "NC1=N[C@@]2(CO1)c1cc(-c3cncc(F)c3)ccc1Oc1cnc(C3CCOCC3)cc12", "RECORDED_METRIC": "pIC50", "REPORTED_RESULT": "> 7.00"}
{"CHEMICAL_STRUCTURE": "CCOC1CN(c2ccc3c(c2)[C@]2(COC(N)=N2)c2cc(-c4cccnc4)ccc2O3)C1", "RECORDED_METRIC": "pIC50", "REPORTED_RESULT": "> 7.00"}
{"CHEMICAL_STRUCTURE": "CCOCC(=O)Nc1ccc2c(c1)[C@@]1(COC(N)=N1)c1cc(OC)ccc1O2", "RECORDED_METRIC": "pIC50", "REPORTED_RESULT": "6.00 to 7.00"}
{"CHEMICAL_STRUCTURE": "Cc1cncc(-c2ccc3c(c2)[C@@]2(COC(N)=N2)c2cc(-c4cccnc4)ncc2O3)c1", "RECORDED_METRIC": "pIC50", "REPORTED_RESULT": "> 7.00"}
{"CHEMICAL_STRUCTURE": "COCC(=O)Nc1ccc2c(c1)[C@@]1(COC(N)=N1)c1cc(C#CC(C)(C)C)ccc1O2", "RECORDED_METRIC": "pIC50", "REPORTED_RESULT": "> 7.00"}
{"CHEMICAL_STRUCTURE": "CC(C)(C)/C=C/c1cnc2c(c1)[C@]1(COC(N)=N1)c1cc(-c3cncnc3)ccc1O2", "RECORDED_METRIC": "pIC50", "REPORTED_RESULT": "> 7.00"}
{"CHEMICAL_STRUCTURE": "NC1=N[C@@]2(CO1)c1cc(-c3ccc(F)nc3)ccc1Oc1cnc(Cl)cc12", "RECORDED_METRIC": "pIC50", "REPORTED_RESULT": "6.00 to 7.00"}
{"CHEMICAL_STRUCTURE": "NC1=N[C@@]2(CO1)c1cc(-c3cccnc3F)ccc1Oc1ccc(C3=CCOCC3)nc12", "RECORDED_METRIC": "pIC50", "REPORTED_RESULT": "> 7.00"}
{"CHEMICAL_STRUCTURE": "CC(C)(F)COc1cnc2c(c1)[C@]1(COC(N)=N1)c1cc(C#CC3CC3)ccc1O2", "RECORDED_METRIC": "pIC50", "REPORTED_RESULT": "> 7.00"}
{"CHEMICAL_STRUCTURE": "Cc1cc(-c2ccc3c(n2)[C@]2(COC(N)=N2)c2cc(-c4cccnc4F)ccc2O3)ccn1", "RECORDED_METRIC": "pIC50", "REPORTED_RESULT": "6.00 to 7.00"}
{"CHEMICAL_STRUCTURE": "COc1cncc(-c2ccc3c(c2)[C@@]2(COC(N)=N2)c2cc(OCC(C)(C)C)cnc2O3)c1", "RECORDED_METRIC": "pIC50", "REPORTED_RESULT": "> 7.00"}
{"CHEMICAL_STRUCTURE": "NC1=N[C@@]2(CO1)c1cc(-c3cccnc3)ccc1Oc1c(F)cc(OCC(=O)C3CC3)cc12", "RECORDED_METRIC": "pIC50", "REPORTED_RESULT": "> 7.00"}
{"CHEMICAL_STRUCTURE": "Cc1cncc(-c2ccc3c(c2)[C@@]2(COC(N)=N2)c2cc(N4CCOCC4)ncc2O3)c1", "RECORDED_METRIC": "pIC50", "REPORTED_RESULT": "> 7.00"}
{"CHEMICAL_STRUCTURE": "N#Cc1cccc(-c2cc3c(cn2)Oc2ccc(-c4cccnc4F)cc2[C@@]32COC(N)=N2)c1", "RECORDED_METRIC": "pIC50", "REPORTED_RESULT": "> 7.00"}
